- Test system: Medulloblastoma cell
- run description: Growth inhibition of mouse Ptch+/- medulloblastoma cells at 1 uM after 72 hrs relative to control
- Assay type: functional
- condition parameters: read-out: GI
quantity kind: inhibition of growth at 1 µM
Note to self: number, then unit, no commentary.

Query: Item COc1cc(OC)c2c(=O)c(-c3ccc(OCc4ccccc4)c(OCc4ccccc4)c3)coc2c1 with Medulloblastoma cell - inhibition of growth at 1 µM?
Response: 61.2%

Query: Please provide the recorded inhibition of growth at 1 µM for COc1cc(OC)c2c(=O)c(-c3ccc(OCC=C(C)C)c(OCC=C(C)C)c3)coc2c1 , tested on Medulloblastoma cell.
Response: 55.9%

Query: Requested read-out inhibition of growth at 1 µM, target or system Medulloblastoma cell, entry COc1cc(OC)c2c(=O)c(-c3ccc(OC)c(OCc4ccc(C(F)(F)F)cc4)c3)coc2c1
Response: 50.9%

Query: Missing value: inhibition of growth at 1 µM, Medulloblastoma cell, entry COc1cc(OC)c2c(=O)c(-c3ccc(OCc4ccc(C(F)(F)F)cc4)c(OC)c3)coc2c1 . Fill in?
Response: 51.8%

Query: Enter reported inhibition of growth at 1 µM observed with Medulloblastoma cell for COc1cc(OC)c2c(=O)c(-c3ccc(OC)c(OCC=C(C)C)c3)coc2c1
Response: 35.6%
